Tested on: murine neural precursor cells (neurosphere cultures)
assay.procedure: HTS of LOPAC library against secondary neurosphere cultures, MTT proliferation assay at 3 μM, day 7 (z score, P value)
Type: cell-based, mouse
condition.label: LOPAC primary screen, neurosphere MTT proliferation, 3 μM, day 7
Where a name gives a salt, the structure may show the parent alone.
Could you please report measured Z score for the items listed next?
Quick one: just the number, no unit, thanks!

QUERY: Entry NC(N)=Nc1ccc2[nH]c3c(c2c1)C[C@@]1(O)[C@H]2Cc4ccc(O)c5c4[C@@]1(CCN2CC1CC1)[C@H]3O5.O=C(O)C(F)(F)F.O=C(O)C(F)(F)F has what Z score?
RESULT: −0.204

QUERY: Entry CNC(=O)Oc1ccc2c(c1)[C@]1(C)CCN(C)[C@@H]1N2C [(−)-Physostigmine] has what Z score?
RESULT: −0.218

QUERY: Entry O=C(O)[C@@H]1[C@H](C(=O)O)[C@H]2CC[C@@H]1O2 [Endothall] has what Z score?
RESULT: −1.143

QUERY: Entry C[C@]12CCC(=O)C=C1CC[C@@H]1[C@@H]2CC[C@@]2(C)[C@H]1CC[C@]2(O)C(=O)CO [Cortexolone] has what Z score?
RESULT: −0.609

QUERY: Entry CCc1c(C(=O)OC)ncc2[nH]c3cc(OC)c(OC)cc3c12 has what Z score?
RESULT: −1.326

QUERY: Entry CN1C[C@H](CNC(=O)OCc2ccccc2)C[C@@H]2c3cccc4c3c(cn4C)C[C@H]21 [Metergoline (39), Metergoline, reference compound] has what Z score?
RESULT: −4.342

QUERY: Entry C[C@H]1O[C@@H](n2cc(F)c(=O)[nH]c2=O)[C@H](O)[C@@H]1O [5-fluoro-5′-deoxyuridine] has what Z score?
RESULT: 0.379

QUERY: Entry Nc1ccc2c3c(cccc13)C(=O)NC2=O [4-Amino-1,8-naphthalimide] has what Z score?
RESULT: 1.875

QUERY: Entry Cl.O=C(O)C1CCCN(CCC=C(c2ccccc2)c2ccccc2)C1 (stereo not shown) [SKF 89976A hydrochloride] has what Z score?
RESULT: −0.233

QUERY: Entry Cl.Cl.Cn1cnc(CCN)c1 [1-Methylhistamine dihydrochloride] has what Z score?
RESULT: 0.307

QUERY: Entry O=C1N(c2ccccc2)c2ccccc2C1(Cc1ccncc1)Cc1ccncc1 [Linopirdine] has what Z score?
RESULT: −0.553

QUERY: Entry CC(C)OC(=O)C(C)(C)Oc1ccc(C(=O)c2ccc(Cl)cc2)cc1 [Fenofibrate] has what Z score?
RESULT: −2.116

QUERY: Entry S=C=Nc1cccc(C2(N3CCCCC3)CCCCC2)c1 [Metaphit (35), Metaphit, reference compound] has what Z score?
RESULT: −4.967

QUERY: Entry CN(C)C(=O)Oc1ccc[n+](C)c1 [Pyridostigmine bromide] has what Z score?
RESULT: 0.231

QUERY: Entry CC[N+](C)(C)c1cccc(O)c1 [Edrophonium chloride] has what Z score?
RESULT: −0.806

QUERY: Entry CCN(CC)CCCCCCCCOC(=O)c1cc(OC)c(OC)c(OC)c1.Cl [TMB-8 hydrochloride] has what Z score?
RESULT: 1.707

QUERY: Entry NS(=O)(=O)c1cc(C(=O)O)c(NCc2ccco2)cc1Cl [Furosemide] has what Z score?
RESULT: 1.889

QUERY: Entry COc1ccccc1N1CCNCC1.Cl has what Z score?
RESULT: −0.639

QUERY: Entry CCN(CCCl)Cc1ccccc1Br.Cl [DSP-4 hydrochloride] has what Z score?
RESULT: 1.518

QUERY: Entry NS(=O)(=O)c1cccc2c1c([N+](=O)[O-])cc1nc([O-])c([O-])nc12.[Na+].[Na+] [NBQX disodium] has what Z score?
RESULT: −1.675

QUERY: Entry C[N+]1(CCCCC[N+]2(C)CCCC2)CCCC1.O=C([O-])C(O)C(O)C(=O)O.O=C([O-])C(O)C(O)C(=O)O [Pentolinium di[L(+)-tartrate]] has what Z score?
RESULT: 0.166

QUERY: Entry N[C@H](CO)C(=O)O [D-Serine] has what Z score?
RESULT: −0.143

QUERY: Entry O=C(O)Cc1c[nH]c2ccc(O)cc12 [5-Hydroxyindolacetic acid] has what Z score?
RESULT: −1.301

QUERY: Entry CCN(CC)C(=O)NC1C=C2c3cccc4[nH]cc(c34)C[C@H]2N(C)C1.O=C(O)/C=C\C(=O)O (stereo partly drawn) [R(+)-Lisuride hydrogen maleate] has what Z score?
RESULT: −1.041

QUERY: Entry COc1cc(NS(C)(=O)=O)ccc1Nc1c2ccccc2nc2ccccc12 [Amsacrine hydrochloride] has what Z score?
RESULT: −11.274
